TARGET_OF_ASSAY: human 5-HT4(a) (Homo sapiens)
Sequence (Q13639 1-387 isoform Q13639-2): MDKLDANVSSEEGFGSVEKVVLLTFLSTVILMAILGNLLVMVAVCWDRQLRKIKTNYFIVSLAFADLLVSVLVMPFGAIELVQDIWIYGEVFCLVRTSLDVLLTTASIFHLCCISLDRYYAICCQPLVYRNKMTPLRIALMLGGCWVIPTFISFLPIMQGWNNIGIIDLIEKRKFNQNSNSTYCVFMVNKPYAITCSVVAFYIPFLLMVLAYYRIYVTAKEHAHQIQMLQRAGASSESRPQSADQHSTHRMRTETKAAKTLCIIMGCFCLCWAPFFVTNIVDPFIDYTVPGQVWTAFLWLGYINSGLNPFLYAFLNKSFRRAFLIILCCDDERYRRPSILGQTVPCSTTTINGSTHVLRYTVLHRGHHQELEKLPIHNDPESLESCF
ASSAY_NAME: Evaluation of agonistic activity in CHO-K1 cells expressing human 5-HT4(a) (GeneBIAzer HTR4-CRE-bla CHO-K1 cells, beta-lactamase fluorescence ratio, EC50 from 8 concentrations)
Please respond with reported pEC50 for every item in the list.
Scale: negative log10 of molar concentration, which is what pEC50 denotes.

Reported pEC50 for CCCc1cc(N2CCC[C@@H](NC)C2)nc(Nc2ccc(F)c(C(F)(F)F)c2)n1 : what is it?
10.59

Reported pEC50 for CCCCc1cc(N2CCC[C@@H](NC(C)=O)C2)nc(Nc2ccc(Cl)c([N+](=O)[O-])c2)n1 : what is it?
10.92

Reported pEC50 for CCCc1cc(N2CCC[C@@H](NC)C2)nc(Nc2ccc(C)c(F)c2)n1 : what is it?
9.38

Reported pEC50 for CCCCc1cc(N2CCC[C@@H](NC)C2)nc(Nc2cc(N)cc(C#N)c2)n1 : what is it?
11.92

Reported pEC50 for CCCCc1cc(N2CCC[C@@H](NC(C)=O)C2)nc(Nc2ccc(F)c(C#N)c2)n1 : what is it?
10.92

Reported pEC50 for CCCCc1cc(N2CCC[C@@H](N)C2)nc(Nc2ccc(N)c(C(F)(F)F)c2)n1 : what is it?
9.95

Reported pEC50 for CCCc1cc(N2CCC[C@@H](NC)C2)nc(Nc2ccc(N)c(C#N)c2)n1 : what is it?
10.89

Reported pEC50 for CCCc1cc(N2CCC[C@@H](NCc3cc(C)c(C)o3)C2)nc(Nc2ccc(C)c(C#N)c2)n1 : what is it?
10.19

Reported pEC50 for CCCc1cc(N2CCC[C@@H](NCc3ccc(O)cc3)C2)nc(Nc2ccc(C)c(C#N)c2)n1 : what is it?
11.00

Reported pEC50 for CCCc1cc(N2CCC[C@@H](NCC3CCCC3)C2)nc(Nc2ccc(C)c(C#N)c2)n1 : what is it?
10.80

Reported pEC50 for CCCCc1cc(N2CCC[C@@H](NC)C2)nc(Nc2ccc(F)c(C(F)(F)F)c2)n1 : what is it?
10.74

Reported pEC50 for CCCc1cc(N2CCC[C@@H](NC)C2)nc(Nc2cc(N)cc(C(F)(F)F)c2)n1 : what is it?
11.49

Reported pEC50 for CCCc1cc(N2CCC[C@@H](N)C2)nc(Nc2ccc(C)c([N+](=O)[O-])c2)n1 : what is it?
10.31

Reported pEC50 for CCCc1cc(N2CCC[C@@H](N)C2)nc(Nc2ccc(N)c([N+](=O)[O-])c2)n1 : what is it?
11.02

Reported pEC50 for CCCc1cc(N2CCC[C@@H](N(CC)CC)C2)nc(Nc2ccc(C)c(C#N)c2)n1 : what is it?
10.80

Reported pEC50 for CCCc1cc(N2CCC[C@@H](N)C2)nc(Nc2cc(N)cc(C#N)c2)n1 : what is it?
11.12

###

TARGET_OF_ASSAY: human 5-HT4(a) (Homo sapiens)
ASSAY_NAME: Evaluation of agonistic activity in CHO-K1 cells expressing human 5-HT4(a) (GeneBIAzer HTR4-CRE-bla CHO-K1 cells, beta-lactamase fluorescence ratio, EC50 from 8 concentrations)
Experimental: Evaluation of Agonistic Activity in CHO-K1 Cells Expressing Human 5-HT4(a) As CHO-K1 cells stably expressing human 5-HT4(a), we used the GeneBIAzer HTR4-CRE-bla CHO-K1 cells (Invitrogen Corp.). […] Agonistic activities on 5-HT4 receptor were evaluated, on the basis of fluorescence values of the cleavage-products by beta-lactamase. […] Data were analyzed on the basis of the ratio of fluorescence intensities of each well at the respective wavelengths. […]
Where a name gives a salt, the structure may show the parent alone.
ENDPOINT_NAME: EC50 (nM)
Give the value in nM but do not write nM after it.

Reported EC50 for CCCCc1cc(N2CCC[C@@H](N)C2)nc(Nc2ccc(C)c(OC)c2)n1 [Example 345] : what is it?
0.08

Reported EC50 for CCCc1cc(N2CCC[C@@H](NC(=O)CO)C2)nc(Nc2ccc(F)c(C#N)c2)n1 [Example 246] : what is it?
0.06

Reported EC50 for CCCc1cc(N2CCCCC2CCO)nc(Nc2ccc(C)c(Cl)c2)n1 (stereo not shown) [Example 140] : what is it?
0.28

Reported EC50 for CCCc1cc(N2CCNC[C@H]2C)nc(Nc2ccc(N)c(C#N)c2)n1 [Example 127] : what is it?
0.053

Reported EC50 for CCCc1cc(N2CCC[C@@H](NC)C2)nc(Nc2ccc(C)c(N)c2)n1 [Example 310] : what is it?
0.047

Reported EC50 for CCCc1cc(N2CCC[C@@H](N)C2)nc(Nc2ccc(C)c(C#N)c2)n1 [Example 153] : what is it?
0.02

Reported EC50 for CCCc1cc(N2CCNC[C@H]2C)nc(Nc2ccc(F)c(N)c2)n1 [Example 123] : what is it?
0.121

Reported EC50 for CCCCc1cc(N2CCC[C@@H](N)C2)nc(Nc2ccc(N)c(C#N)c2)n1 [Example 350] : what is it?
0.028

Reported EC50 for CCCc1cc(N2CCC[C@@H](NCC3CC3)C2)nc(Nc2ccc(C)c(C#N)c2)n1 [Example 267] : what is it?
0.088

Reported EC50 for CCCCc1cc(N2CCC[C@@H](N)C2)nc(Nc2cc(N)cc(C#N)c2)n1 [Example 342] : what is it?
0.0041

Reported EC50 for CCCc1cc(N2CCC[C@@H](NCC(C)(C)C)C2)nc(Nc2ccc(C)c(C#N)c2)n1 [Example 211] : what is it?
0.023

Reported EC50 for CCCc1cc(N2CCC[C@@H](NC)C2)nc(Nc2ccc(C)c(C(F)(F)F)c2)n1 [Example 324] : what is it?
0.0087

Reported EC50 for CCCCc1cc(N2CCC[C@@H](NC)C2)nc(Nc2ccc(C)c(OC)c2)n1 [Example 318] : what is it?
0.025

Reported EC50 for CCCc1cc(N2CCCCC2CCO)nc(Nc2cccc(C(F)(F)F)c2)n1 (stereo not shown) [Example 147] : what is it?
0.31

Reported EC50 for CCCc1cc(N2CCC[C@@H](N)C2)nc(Nc2ccc(N)c(C#N)c2)n1 [Example 261] : what is it?
0.105

Reported EC50 for CCCCc1cc(N2CCC[C@@H](NC)C2)nc(Nc2ccc(C)c(N)c2)n1 [Example 319] : what is it?
0.0047

Reported EC50 for CCCc1cc(N2CCCCC2CC)nc(Nc2cccc(SC)c2)n1 (stereo not shown) [Example 104] : what is it?
0.36

Reported EC50 for CCCc1cc(N2CCC[C@H](NCC3CC3)C2)nc(Nc2ccc(C)c(C#N)c2)n1 [Example 163] : what is it?
0.088

Reported EC50 for CCCCc1cc(N2CCC[C@@H](N)C2)nc(Nc2ccc(F)c(N)c2)n1 [Example 349] : what is it?
0.014

Reported EC50 for CCCc1cc(N2CCCCC2CC)nc(Nc2ccc(F)c([N+](=O)[O-])c2)n1 (stereo not shown) [Example 100] : what is it?
0.2

Reported EC50 for CCCc1cc(N2CCCCC2CC)nc(Nc2cccc([N+](=O)[O-])c2)n1 (stereo not shown) [Example 99] : what is it?
0.37

Reported EC50 for CCCc1cc(N2CCCCC2)nc(Nc2ccc(F)c([N+](=O)[O-])c2)n1 [Example 40] : what is it?
0.26

Reported EC50 for CCCc1cc(N2CCC[C@@H](N)C2)nc(Nc2ccc3cc[nH]c3c2)n1 [Example 264] : what is it?
0.328

Reported EC50 for CCCc1cc(N2CCC[C@@H](NC(C)=O)C2)nc(Nc2ccc(C)c(C#N)c2)n1 [Example 220] : what is it?
0.0082

Reported EC50 for CCCc1cc(N2CCC[C@@H](NCC)C2)nc(Nc2ccc(N)c(C(F)(F)F)c2)n1 [Example 291] : what is it?
0.0028

Reported EC50 for CCCc1cc(N2CCC[C@@H](NC(C)=O)C2)nc(Nc2ccc(F)c(C(F)(F)F)c2)n1 [Example 277] : what is it?
0.014

Reported EC50 for CCCc1cc(N2CCC[C@@H](NCCCSC)C2)nc(Nc2ccc(C)c(C#N)c2)n1 [Example 216] : what is it?
0.016

Reported EC50 for CCCc1cc(N2CCC[C@@H](NCC(C)C)C2)nc(Nc2ccc(C)c(C#N)c2)n1 [Example 209] : what is it?
0.015

Reported EC50 for CCCc1cc(N2CCC[C@@H](NC(C)C)C2)nc(Nc2ccc(C)c(C#N)c2)n1 [Example 212] : what is it?
0.1

Reported EC50 for CCCc1cc(N2CCCCC2CC)nc(Nc2ccc(Cl)c([N+](=O)[O-])c2)n1 (stereo not shown) [Example 101] : what is it?
0.24

Reported EC50 for CCCc1cc(N2CCC[C@H](NCCC(C)C)C2)nc(Nc2ccc(C)c(C#N)c2)n1 [Example 157] : what is it?
0.088

Reported EC50 for CCCc1cc(N2CCC[C@@H](N)C2)nc(Nc2ccc(F)c(C#N)c2)n1 [Example 222, dihydrochloride] : what is it?
0.056

Reported EC50 for CCCCc1cc(N2CCC[C@@H](N)C2)nc(Nc2ccc(C)c(C)c2)n1 [Example 347] : what is it?
0.391

Reported EC50 for CCCc1cc(N2CCCCC2CCO)nc(Nc2ccc(N)c([N+](=O)[O-])c2)n1 (stereo not shown) [Example 176] : what is it?
0.018
